tested on: UACC-62 melanoma; experiment: NCI-60 one-dose screen, 48 h; details: 10 µM unless noted
About 83,000 compounds went through this panel and 20% of them were active in at least one assay; those are over-represented in the sample as a whole. The source made the active and inactive calls. How the source made its calls: active means growth percent below 10; inactive means the rest.
Choose the fitting class; nothing outside active, inactive is accepted.

Worked examples, 10 compounds total:
Cn1c(I)c(C#C[Si](C)(C)C)c(=O)n(C(=O)c2ccccc2)c1=O : inactive
COCN1CCC2N(COC)CCC3N(COC)CCC1N23 (centres undefined) : inactive
CCC1(C2CCCC2)NC(=O)NC1=O (centres undefined) : inactive
COc1cccc(-c2nn(-c3ccccc3)cc2-c2ccnc(NCCNC(=O)c3ccccc3)c2)c1 : inactive
CS(=O)(=O)c1ccc(Nc2nc(N[C@H]3CCCC[C@H]3N)nc3cc[nH]c(=O)c23)cc1 : active
Cc1ccc(N(C(=O)CCc2c[nH]c3ccccc23)[C@H](C(=O)Nc2ccc(Cl)cc2)c2cccc([N+](=O)[O-])c2)cc1 : inactive
O=C(Cc1ccc(F)c(F)c1)Nc1cc(C2(C(F)(F)F)CC2)nn1Cc1ccccc1 : active
COc1cccc(-c2nc3sccn3c2/C=C/C(=O)c2ccc(C(F)(F)F)cc2)c1 : inactive
OC(c1cccc(-n2ccc(C(F)(F)F)n2)c1)c1cnccc1NC1CCCCCC1 (centres undefined) : inactive
CN(C)c1ccc(/C=C/C(=O)c2cccc(Nc3nc(Nc4ccccc4)nc(Nc4ccccc4)n3)c2)cc1 : inactive

input: Record lookup: outcome of this test for COc1ccc(C2c3ccc4ccccc4c3Oc3nc(C)[nH]c(=O)c32)cc1 (centres undefined) ?
output: inactive

input: Record lookup: outcome of this test for O=c1c2cc(F)ccc2sc2c(NCCCN3CCCC3)nc3ccccc3c12 ?
output: active

input: Record lookup: outcome of this test for COc1ccc(/C=C/c2c(C(=O)/C=C/c3cccs3)c(C)nc3ccccc23)cc1 ?
output: inactive

input: Record lookup: outcome of this test for C=C(C)[C@@H]1CC[C@]2(C(=O)NC3CCCCC3)CC[C@]3(C)[C@H](CC[C@@H]4[C@@]5(C)CCCNC(C)(C)[C@@H]5CC[C@]43C)[C@@H]12 ?
output: inactive

input: Record lookup: outcome of this test for C[n+]1cc2c3c(ccc2c2ccc4cc5c(cc4c21)OCO5)OCO3 ?
output: active

input: Record lookup: outcome of this test for CCOC(=O)c1c2ncccc2n2c(=O)n(-c3ccccc3C)nnc12 ?
output: inactive

input: Record lookup: outcome of this test for COc1ccc(NC(=O)CSc2nnc(-c3cc(-c4ccccc4)nc4ccccc34)n2-c2ccccc2)cc1 ?
output: inactive

input: Record lookup: outcome of this test for COc1ccc2cc(-c3cc(OC)c(OC)c(OC)c3)c(=O)oc2c1 ?
output: inactive

input: Record lookup: outcome of this test for N#Cc1nc2c(S(=O)(=O)c3ccc(Cl)cc3)c(N)n(Nc3cccc(Cl)c3)c2nc1C#N ?
output: inactive

input: Record lookup: outcome of this test for COc1ccc(-c2nc3ccc4[nH]ncc4c3c3c2CCCC3)cc1B(O)O ?
output: inactive

input: Record lookup: outcome of this test for Cc1ccc(/C=C/c2c(C(=O)/C=C/c3ccc(Cl)cc3)c(C)nc3ccccc23)cc1 ?
output: active

input: Record lookup: outcome of this test for CC(C)=C[C@@H]1c2c(c3ccccc3n(C)c2=O)O[C@H]2c3c(c4ccccc4n(C)c3=O)OC(C)(C)[C@@H]12 ?
output: inactive

input: Record lookup: outcome of this test for COc1ccc(Cl)cc1NC(=O)C(Br)C(Br)C(=O)O (centres undefined) ?
output: active

input: Record lookup: outcome of this test for CC(C)CCC[C@@H](C)[C@H]1CC[C@H]2[C@@H](Nc3ccc(O)cc3)CCC[C@]12C ?
output: inactive

* * *

system: TK-10 renal; test: NCI-60 one-dose screen, 48 h; conditions: 10 µM unless noted
This is part of a sample that, as a whole, favours compounds with a hit. Of some 83,000 tested, about 20% had one in any assay. Calls of active or inactive are those of the source. How the source made its calls: active means growth percent below 10; inactive means the rest.
Choose the fitting class; nothing outside t for active, f for inactive is accepted.

Worked examples, 8 molecules total:
Cc1ccc(S(=O)(=O)n2cc(CNc3ccc(N4CCOCC4=O)cc3)c3ccccc32)cc1 : f
CC1(c2ccccc2)NC(=O)N(NC(=O)CSc2nc(-c3cccs3)nc3ccccc23)C1=O (stereo not drawn) : f
CN1CCN(C(=O)c2c3c(n4ccccc24)C(=O)c2ncccc2C3=O)CC1 : f
COc1ccc(NC(=O)CSc2nnc(-c3cc(-c4ccc(S(N)(=O)=O)cc4)nc4ccccc34)n2-c2ccccc2)cc1 : f
Cc1c(C(=O)NC(Cc2ccccc2)C(O)C(=O)NCc2ccc(F)cc2)[nH]c2ccccc2c1=O (stereo not drawn) : f
COc1ccc(C2=NN(C(=O)c3cc(OC)c(OC)c(OC)c3)C(c3ccc(Cl)cc3)C2)cc1OC (stereo not drawn) : f
CCc1c2c(nc3ccc(OC(=O)OCc4ccc(B5OC(C)(C)C(C)(C)O5)cc4)cc13)-c1cc3c(c(=O)n1C2)COC(=O)[C@]3(O)CC : t
COc1ccc(C2=Nc3c(N)ncnc3NC(c3ccc4c(c3)OCO4)C2)cc1 (stereo not drawn) : f

input: Record lookup: outcome of this test for O=C1CC(N2C(=O)/C(=C/C(Cl)=C\c3ccc([N+](=O)[O-])cc3)SC2=S)C(=O)N1c1ccc(O)cc1 (stereo not drawn) ?
output: t

input: Record lookup: outcome of this test for Cc1nc2ccccc2c(/C=C/c2ccc(Cl)cc2)c1C(=O)/C=C/c1ccc(F)cc1 ?
output: f

input: Record lookup: outcome of this test for COc1ccc(N2CCN(c3nc(-c4cc(OC)c(OC)c(OC)c4)nc4ccccc34)CC2)cc1 ?
output: f

input: Record lookup: outcome of this test for COc1cc2c(cc1-c1c(C)noc1C)ncc1nc(C3CCC(F)(F)CC3)n(C3CCC(OC(F)F)CC3)c12 (stereo not drawn) ?
output: f

input: Record lookup: outcome of this test for C=CC(=O)Nc1cccc(Oc2nccc(Nc3nnc(C4CC4)s3)n2)c1 ?
output: f

input: Record lookup: outcome of this test for O=C(Nc1ccc(Nc2ccncc2)cc1)c1ccc(C(=O)Nc2ccc(Nc3ccncc3)cc2)cc1 ?
output: f

input: Record lookup: outcome of this test for FC(F)(F)c1cc(Nc2ccc3cc(OCCCN4CCOCC4)ccc3n2)ccc1Cl ?
output: f

input: Record lookup: outcome of this test for Cc1cc(Cl)ccc1Nc1nc(C(F)(F)F)ccc1C(=O)N/N=C/c1ccc(N(C)C)cc1 ?
output: f

input: Record lookup: outcome of this test for Cc1ccc(NCCN(C)C)c2c(=O)c3ccccc3sc12 ?
output: f

input: Record lookup: outcome of this test for O=C1c2cccc(NCCN=Cc3cc([N+](=O)[O-])ccc3O)c2C(=O)c2c(NCCN=Cc3cc([N+](=O)[O-])ccc3O)cccc21 ?
output: f

* * *

tested on: COLO 205 colon; experiment: NCI-60 one-dose screen, 48 h; conditions: 10 µM unless noted
Compounds without any hit were thinned out: in the full panel of roughly 83,000, 20% have a hit. Calls of active or inactive are those of the source. How the source made its calls: active means growth percent below 10; inactive means the rest.
Choose the fitting class; nothing outside active, inactive is accepted.

CCc1ccccc1-n1c(N)c(C#N)c(-c2ccc(N(C)C)cc2)c(C#N)c1=O : inactive
N#Cc1nc(C#N)c(Sc2ccccc2)c(Sc2ccccc2)c1Sc1ccccc1 : active
Cc1nn(-c2ccccc2)c(Oc2ccc(Cl)cc2)c1/C=N\N=c1/sc2ccccc2n1C : inactive

input: Record lookup: outcome of this test for C#Cc1cccc(NC(=O)c2ccc(NC(=O)CCl)cc2)c1 ?
output: active

input: Record lookup: outcome of this test for Cc1cc(C)c(-c2c(C)cc(C)cc2CBr)c(CBr)c1 ?
output: inactive

input: Record lookup: outcome of this test for Cc1ccc(-n2c(-c3ccccc3)c(-c3ccccc3)c3c(SCC(=O)n4[nH]c(N)cc4=O)ncnc32)cc1 ?
output: inactive

input: Record lookup: outcome of this test for COc1cccc(-c2nn(-c3ccccc3)cc2-c2ccnc(NCCNC(=O)Nc3ccccc3)c2)c1 ?
output: inactive

input: Record lookup: outcome of this test for C=CCOC1=CC(=O)c2ccccc2C1=O ?
output: inactive

input: Record lookup: outcome of this test for NC(=O)c1ccc[n+](Cc2ccc(Cl)cc2Cl)c1 ?
output: inactive

input: Record lookup: outcome of this test for COc1ccc2c(c1)O/C(=C/c1ccc(OCC(=O)c3ccccc3)cc1)C2=O ?
output: inactive

* * *

Tested on: UACC-257 melanoma
Test: NCI-60 one-dose screen, 48 h (100 = growth as untreated, 0 = no growth, -100 = all killed)
Details: 10 µM unless noted
Description: Cells are grown in 96 well plates and exposed to the test compound for 48 hours. Compounds are tested at a single concentration, which is 10^-5 M for most compounds. The reported endpoint is percent growth (GI% or GIPRCNT), where numbers from 0 - 100% represent growth inhibition, and numbers from -100% - 0 represent cell death. For example, a value of 40 represents 60% growth inhibition. A value of 0 means no net growth occurred over the course of the experiment. […]
The panel holds about 83,000 compounds, 20% with a hit somewhere; the sample as a whole holds those more often.
So I've got a bunch of compounds here, and I need their growth values.
Answers are plain numbers, in %.

Below: 3 compounds and their reported growth.
Cc1cc(C)c2c(-c3nnc(N)s3)cc(=O)oc2c1 : 107
O=C(Nc1ccc(Cl)cc1)Nc1ccc(Cl)c(C(F)(F)F)c1 : 2.84
COc1cccc(-c2nn(-c3ccccc3)cc2-c2ccnc(NCCNC(=O)Nc3ccccc3)c2)c1 : 42.9

Would you be so kind as to report growth for each listed record?
1. COc1ccc(NC(=O)CSc2nc(C)c(C(C)=O)n2-c2ccc([N+](=O)[O-])cc2)cc1
2. NC(=S)Nc1cccc(O)c1
3. O=c1c2cc(F)ccc2sc2c(NCCCN3CCCC3)nc3ccccc3c12

output:
98.4
92.9
54.2

Would you be so kind as to report growth for each listed record?
1. CCCCCCCCn1ccc2cc(NC(=O)Cn3cc(CN4CCCC4)nn3)ccc21
2. COc1cc(C2CC(=O)Nc3c2c(C)nn3-c2nc3ccccc3[nH]2)c(OC)c2c1OCO2 (stereo not given)
3. COc1ccc(-c2nc(SCC(=O)Nc3nc(-c4ccccc4)cs3)[nH]c(=O)c2C#N)cc1
4. O=C(Nc1ccccc1)Nc1cccc(Oc2nnc(Cl)c3ccccc23)c1

output:
[51.6, 85.5, 109, 22]
